Biological target: PDGFRβ (Homo sapiens (Human))
Sequence (P09619 33-1106): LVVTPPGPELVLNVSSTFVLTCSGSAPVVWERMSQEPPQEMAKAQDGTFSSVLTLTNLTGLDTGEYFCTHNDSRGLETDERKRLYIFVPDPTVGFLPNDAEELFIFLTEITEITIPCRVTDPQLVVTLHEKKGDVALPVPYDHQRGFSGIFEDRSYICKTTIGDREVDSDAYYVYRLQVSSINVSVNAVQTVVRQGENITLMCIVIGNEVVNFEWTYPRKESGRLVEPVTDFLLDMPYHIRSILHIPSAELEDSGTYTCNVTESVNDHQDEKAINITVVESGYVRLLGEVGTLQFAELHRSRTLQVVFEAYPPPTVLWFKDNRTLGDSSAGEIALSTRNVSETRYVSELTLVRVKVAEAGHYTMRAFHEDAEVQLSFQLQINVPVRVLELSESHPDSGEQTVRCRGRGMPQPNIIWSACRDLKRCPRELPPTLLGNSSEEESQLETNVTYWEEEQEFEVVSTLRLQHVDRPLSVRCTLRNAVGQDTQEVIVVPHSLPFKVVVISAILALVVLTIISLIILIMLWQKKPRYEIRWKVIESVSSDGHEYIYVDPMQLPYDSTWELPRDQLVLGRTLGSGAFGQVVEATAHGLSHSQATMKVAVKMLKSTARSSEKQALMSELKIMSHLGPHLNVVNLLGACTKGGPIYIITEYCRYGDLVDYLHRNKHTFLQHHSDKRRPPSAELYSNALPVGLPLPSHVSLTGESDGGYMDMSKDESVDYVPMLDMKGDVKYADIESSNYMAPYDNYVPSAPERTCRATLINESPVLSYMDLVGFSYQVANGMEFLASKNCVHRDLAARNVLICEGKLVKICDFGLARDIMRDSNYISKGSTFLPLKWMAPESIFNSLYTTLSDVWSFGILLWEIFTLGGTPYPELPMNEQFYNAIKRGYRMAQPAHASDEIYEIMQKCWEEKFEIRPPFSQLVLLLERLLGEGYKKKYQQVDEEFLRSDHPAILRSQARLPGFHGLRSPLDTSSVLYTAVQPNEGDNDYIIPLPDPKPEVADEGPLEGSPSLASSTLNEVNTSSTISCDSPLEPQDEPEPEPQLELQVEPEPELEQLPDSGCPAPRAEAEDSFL
Assay: Inhibition of PDGFRβ kinase activity (HTRF KinEASE-TK)
Conditions: biochemical, HTRF KinEASE-TK
pIC50: −log10 of the molar value.
Attribute Measured: pIC50

Input CCc1ccc(NC(=O)c2cc(NC(=O)c3cnc(C)s3)c(C)cc2F)nc1 . Output pIC50: < 6.00

Input Cc1cc(F)c(C(=O)Nc2ccn(CC3CC3)n2)cc1NC(=O)c1cnc(N)s1 . Output pIC50: > 7.00

Input Cc1ncc(C(=O)Nc2cc(C(=O)Nc3ncc(C4CC4)cn3)c(F)cc2C)s1 . Output pIC50: < 6.00

Input Cc1cc(F)c(C(=O)Nc2ccc(OC3CCC3)cn2)cc1NC(=O)c1cnc(N)s1 . Output pIC50: > 7.00

Input CCOc1cnc(NC(=O)c2cc(NC(=O)c3cnc(C)s3)c(C)cc2F)cn1 . Output pIC50: < 6.00

Input COCc1ccc(NC(=O)c2cc(NC(=O)c3cnc(C)s3)c(C)cc2F)nc1 . Output pIC50: < 6.00

Input Cc1ncc(C(=O)Nc2cc(C(=O)Nc3ccc(CC(F)(F)F)cn3)c(C)cc2C)s1 . Output pIC50: < 6.00

Input Cc1cc(F)c(C(=O)Nc2ccc(C3CC3)nn2)cc1NC(=O)c1cnc(N)s1 . Output pIC50: > 7.00

Input Cc1ncc(C(=O)Nc2cc(C(=O)NCc3ccc(F)cc3F)c(F)cc2C)s1 . Output pIC50: < 6.00

Input COCCc1ccc(NC(=O)c2cc(NC(=O)c3cnc(N)s3)c(C)cc2F)nc1 . Output pIC50: < 6.00

Input CC(C)Oc1ccc(NC(=O)c2cc(NC(=O)c3cnc(N)s3)c(F)cc2F)nc1 . Output pIC50: < 6.00

Input Nc1ncc(C(=O)Nc2cc(C(=O)Nc3ccc(OCC(F)F)cn3)c(F)cc2F)s1 . Output pIC50: < 6.00

Input Cc1ncc(C(=O)Nc2cc(C(=O)NCc3ccn(C(C)C)n3)c(F)cc2C)s1 . Output pIC50: < 6.00

Input Cc1ncc(C(=O)Nc2cc(C(=O)Nc3ccc(C(C)(F)F)cn3)c(F)cc2C)s1 . Output pIC50: < 6.00

Input CCOCc1ccc(NC(=O)c2cc(NC(=O)c3cnc(N)s3)c(C)cc2F)nc1 . Output pIC50: < 6.00

Input Cc1ncc(C(=O)Nc2cc(C(=O)Nc3cnc(N4CCC[C@@H]4C(F)(F)F)cn3)c(F)cc2C)s1 . Output pIC50: < 6.00

Input Nc1ncc(C(=O)Nc2cc(C(=O)Nc3cnc(C4CC4)nc3)c(F)cc2Cl)s1 . Output pIC50: 6.00 to 7.00

====

System: beagle dog hepatocytes
Assay: Bioactivation assessment in dog hepatocytes
Assay type: in vitro ADME
Details: 5 μM, 4 hours
Classify by measured Percent of total metabolism via bioactivation, Dog hepatocytes: Condition met if it is equal to or exceeds 4%, Condition not met if it is smaller.

API: above_or_equal(metric=Percent of total metabolism via bioactivation, Dog hepatocytes, cutoff=4%) for item Cc1ncc(C(=O)Nc2cc(C(=O)Nc3ccc(CC(F)(F)F)cn3)c(F)cc2Cl)s1 [Example 46]
Condition met

API: above_or_equal(metric=Percent of total metabolism via bioactivation, Dog hepatocytes, cutoff=4%) for item Cc1ccc(-c2noc([C@H]3C[C@@H]3F)n2)cc1NC(=O)c1cnc2ccccn12 [labuxtinib, reference compound]
Condition met

API: above_or_equal(metric=Percent of total metabolism via bioactivation, Dog hepatocytes, cutoff=4%) for item Cc1ncc(C(=O)Nc2cc(C(=O)Nc3ccc(C4CC4)cn3)c(F)cc2C)s1 [Example 3]
Condition not met

API: above_or_equal(metric=Percent of total metabolism via bioactivation, Dog hepatocytes, cutoff=4%) for item Cc1ncc(C(=O)Nc2cc(C(=O)Nc3ccc(CC(F)(F)F)cn3)c(F)cc2F)s1 [Example 242]
Condition met

API: above_or_equal(metric=Percent of total metabolism via bioactivation, Dog hepatocytes, cutoff=4%) for item Cc1ncc(C(=O)Nc2cc(C(=O)Nc3ccc(OC(F)F)cn3)c(F)cc2C)s1 [Example 38]
Condition not met

====

Biological target: PDGFRα (Homo sapiens (Human), UniProt P16234)
Sequence (P16234 24-1089): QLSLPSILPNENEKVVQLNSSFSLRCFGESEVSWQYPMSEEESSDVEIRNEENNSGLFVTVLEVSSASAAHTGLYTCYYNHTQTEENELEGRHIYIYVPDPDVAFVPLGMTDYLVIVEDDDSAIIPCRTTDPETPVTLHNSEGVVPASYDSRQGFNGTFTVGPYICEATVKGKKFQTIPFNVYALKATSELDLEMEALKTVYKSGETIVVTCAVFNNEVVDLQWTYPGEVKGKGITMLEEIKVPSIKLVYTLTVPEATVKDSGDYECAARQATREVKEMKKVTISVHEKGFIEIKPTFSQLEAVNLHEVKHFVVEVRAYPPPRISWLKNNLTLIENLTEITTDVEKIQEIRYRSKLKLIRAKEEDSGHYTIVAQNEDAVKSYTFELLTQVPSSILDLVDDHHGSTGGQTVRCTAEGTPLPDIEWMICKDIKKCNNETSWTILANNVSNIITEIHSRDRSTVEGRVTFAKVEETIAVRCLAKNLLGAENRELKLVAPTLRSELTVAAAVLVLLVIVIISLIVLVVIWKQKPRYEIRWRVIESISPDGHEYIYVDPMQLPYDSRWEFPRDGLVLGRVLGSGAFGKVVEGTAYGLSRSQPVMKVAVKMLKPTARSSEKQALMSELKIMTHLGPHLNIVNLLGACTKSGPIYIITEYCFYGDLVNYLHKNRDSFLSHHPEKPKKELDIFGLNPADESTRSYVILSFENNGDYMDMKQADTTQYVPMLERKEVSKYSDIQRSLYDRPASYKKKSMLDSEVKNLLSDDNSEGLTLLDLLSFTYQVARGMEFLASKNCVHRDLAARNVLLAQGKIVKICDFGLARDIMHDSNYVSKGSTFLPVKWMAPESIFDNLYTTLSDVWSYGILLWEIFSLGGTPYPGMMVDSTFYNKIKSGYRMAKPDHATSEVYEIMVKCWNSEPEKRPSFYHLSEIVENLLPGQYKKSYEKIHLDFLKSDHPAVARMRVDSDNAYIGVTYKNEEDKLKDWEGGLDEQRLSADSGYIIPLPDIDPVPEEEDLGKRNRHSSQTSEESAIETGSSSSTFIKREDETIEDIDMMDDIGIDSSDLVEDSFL
Experiment: Inhibition of PDGFRα kinase activity (HTRF KinEASE-TK)
Details: biochemical, HTRF KinEASE-TK
pIC50: −log10 of the molar value.
Provide the recorded pIC50 for the entries that follow.

Input Cc1cc(F)c(C(=O)Nc2cnn(C(C)C)n2)cc1NC(=O)c1cnc(N)s1 [Example 171] . Output pIC50: 6.00 to 7.00

Input Cc1cc(F)c(C(=O)Nc2ccn(C3CC3)n2)cc1NC(=O)c1cnc(N)s1 [Example 159] . Output pIC50: < 6.00

Input Cc1cc(F)c(C(=O)Nc2ccc(C(C)(C)O)cn2)cc1NC(=O)c1cnc(N)s1 [Example 113] . Output pIC50: 6.00 to 7.00

Input Cc1cc(F)c(C(=O)Nc2nc(C)n(C)n2)cc1NC(=O)c1cnc(N)s1 [Example 173] . Output pIC50: < 6.00

Input CCOc1cnc(NC(=O)c2cc(NC(=O)c3cnc(C)s3)c(C)cc2F)cn1 [Example 17] . Output pIC50: < 6.00

Input Cc1cc(F)c(NC(=O)c2cnc(N)s2)cc1C(=O)Nc1ccc(OC2CC2)cn1 [Example 223] . Output pIC50: < 6.00

Input Cc1cc(F)c(C(=O)Nc2ccn(CC(C)C)n2)cc1NC(=O)c1cnc(N)s1 [Example 142] . Output pIC50: 6.00 to 7.00

Input Cc1ncc(C(=O)Nc2cc(C(=O)NCc3ccn(C(C)C)n3)c(F)cc2C)s1 [Example 79] . Output pIC50: < 6.00

====

Biological target: UniProt P07333
Assay: Inhibition of CSF1R kinase activity (HTRF KinEASE-TK)
Conditions: biochemical, HTRF KinEASE-TK
Attribute Measured: IC50

Input Cc1cc(Cl)c(C(=O)Nc2ccc(OC3CC3)cn2)cc1NC(=O)c1cnc(N)s1 [Example 224] . Output IC50: > 1000 nM

Input Cc1ncc(C(=O)Nc2cc(C(=O)Nc3ccn(C(C)C)n3)c(F)cc2C)s1 [Example 63] . Output IC50: > 1000 nM

Input COC[C@H]1CCCN1c1cnc(NC(=O)c2cc(NC(=O)c3cnc(C)s3)c(C)cc2F)cn1 [Example 90] . Output IC50: > 1000 nM

Input Cc1cc(F)c(C(=O)Nc2ccc(OC3CC3)cc2)cc1NC(=O)c1cnc(N)s1 [Example 229] . Output IC50: 100 to 1000 nM

====

Provide the recorded pIC50 for the entries that follow.
Biological target: CSF1R (Homo sapiens (Human))
Sequence (P07333 20-972): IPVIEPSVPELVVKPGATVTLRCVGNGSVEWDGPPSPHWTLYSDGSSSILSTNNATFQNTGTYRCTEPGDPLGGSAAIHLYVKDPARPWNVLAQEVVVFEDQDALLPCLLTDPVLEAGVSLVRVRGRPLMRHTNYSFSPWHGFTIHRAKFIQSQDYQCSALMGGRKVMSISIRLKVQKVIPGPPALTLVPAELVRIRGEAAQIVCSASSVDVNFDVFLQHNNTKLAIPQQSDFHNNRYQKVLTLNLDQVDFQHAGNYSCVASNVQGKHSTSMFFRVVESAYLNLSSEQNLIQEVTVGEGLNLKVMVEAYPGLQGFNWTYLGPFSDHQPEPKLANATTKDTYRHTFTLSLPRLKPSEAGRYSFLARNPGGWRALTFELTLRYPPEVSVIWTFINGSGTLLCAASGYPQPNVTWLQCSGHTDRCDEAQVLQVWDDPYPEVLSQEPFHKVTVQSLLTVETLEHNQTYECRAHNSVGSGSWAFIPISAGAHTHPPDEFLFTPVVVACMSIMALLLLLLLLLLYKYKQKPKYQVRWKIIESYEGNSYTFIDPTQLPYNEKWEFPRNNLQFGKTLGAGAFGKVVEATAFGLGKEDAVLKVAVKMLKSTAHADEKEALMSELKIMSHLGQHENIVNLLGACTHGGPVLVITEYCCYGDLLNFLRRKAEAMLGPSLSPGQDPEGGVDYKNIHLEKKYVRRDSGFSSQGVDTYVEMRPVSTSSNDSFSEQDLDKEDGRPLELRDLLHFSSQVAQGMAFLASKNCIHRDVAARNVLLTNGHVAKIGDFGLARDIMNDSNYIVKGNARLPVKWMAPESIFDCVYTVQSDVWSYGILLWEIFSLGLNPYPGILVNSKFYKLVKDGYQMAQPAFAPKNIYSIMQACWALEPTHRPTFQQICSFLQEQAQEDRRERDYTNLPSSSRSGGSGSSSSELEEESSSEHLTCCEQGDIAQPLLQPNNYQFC
Assay: Inhibition of CSF1R kinase activity (HTRF KinEASE-TK)
Settings: biochemical, HTRF KinEASE-TK
pIC50: −log10 of the molar value.

Input CO[C@H]1C[C@@H](NC(=O)c2cc(NC(=O)c3cnc(N)s3)c(C)cc2F)C1 [Example 123] . Output pIC50: < 6.00

Input Cc1cc(F)c(C(=O)Nc2ccc3c(c2)C(F)(F)C(=O)N3)cc1NC(=O)c1cnc(N)s1 [Example 188] . Output pIC50: > 7.00

Input CO[C@H]1C[C@@H](n2nccc2NC(=O)c2cc(NC(=O)c3cnc(N)s3)c(C)cc2F)C1 [Example 186] . Output pIC50: < 6.00

Input Cc1cc(F)c(C(=O)Nc2ccn(CC(C)(C)O)n2)cc1NC(=O)c1cnc(N)s1 [Example 153] . Output pIC50: < 6.00

Input Cc1ncc(C(=O)Nc2cc(C(=O)N[C@@H]3C[C@H]3c3ccccc3)c(F)cc2C)s1 [Example 31] . Output pIC50: < 6.00

Input COCCc1ccc(NC(=O)c2cc(NC(=O)c3cnc(N)s3)c(C)cc2F)nc1 [Example 245] . Output pIC50: < 6.00

Input Cc1cc(F)c(C(=O)Nc2ccc(OC3CC3)cn2)cc1NC(=O)c1cnc(N)s1 [Example 129] . Output pIC50: 6.00 to 7.00

Input Cc1ncc(C(=O)Nc2cc(C(=O)Nc3ccn(CC(C)C)n3)c(F)cc2C)s1 [Example 64] . Output pIC50: < 6.00

Input Cc1ncc(C(=O)Nc2cc(C(=O)Nc3ccc(OC(C)C)cn3)c(F)cc2C)s1 [Example 40] . Output pIC50: < 6.00

Input Cc1cc(F)c(C(=O)NCC(F)(F)F)cc1NC(=O)c1cnc(N)s1 [Example 122] . Output pIC50: < 6.00

Input Cc1ncc(C(=O)Nc2cc(C(=O)Nc3cnc(OC(F)(F)F)cn3)c(F)cc2C)s1 [Example 87] . Output pIC50: < 6.00

Input COC(c1ccc(NC(=O)c2cc(NC(=O)c3cnc(N)s3)c(C)cc2F)nc1)C1CC1 (centres unmarked) [Example 197] . Output pIC50: < 6.00

Input Cc1cc(F)c(C(=O)Nc2ccc(C(F)C(F)(F)F)cn2)cc1NC(=O)c1cnc(N)s1 (centres unmarked) [Example 225] . Output pIC50: 6.00 to 7.00

Input Cc1ncc(C(=O)Nc2cc(C(=O)Nc3ccc(C(F)(F)F)cn3)c(F)cc2C)s1 [Example 14] . Output pIC50: < 6.00

Input Cc1ncc(C(=O)Nc2cc(C(=O)Nc3cnc(C(C)C)cn3)c(F)cc2C)s1 [Example 28] . Output pIC50: < 6.00

Input COCc1ccc(NC(=O)c2cc(NC(=O)c3cnc(N)s3)c(F)cc2F)nc1 [Example 215] . Output pIC50: < 6.00

Input Cc1ncc(C(=O)Nc2cc(C(=O)Nc3ccn(C4CCC4)n3)c(F)cc2C)s1 [Example 61] . Output pIC50: < 6.00
